Catalogue of molecules with associated normalised cell number
- Experimental Protocol: differential killing of epithelial or mesenchymal cells, primary screen, imaging, PC-3E GFP, TEM4-18 mCherry, co-culture (AID 1345086);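 further: cells exposed to compound for 72 h before imaging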
- Experimental Context: imaging cell counts, measured here: epithelial PC-3E GFP cell survival, at 1 µM
Form rule: numeric answer, no unit written next to it.

>  <Molecule>
CC(C)=CCC/C(C)=C\CC1=C(C)C(=O)c2ccccc2C1=O

>  <Measurement Type>
normalised cell number

>  <Observed>
1.11

$$$$
>  <Molecule>
CC12CCC(=O)C=C1CCC1C2[C@@H](O)CC2(C)C1CC[C@]2(O)C(=O)COP(=O)(O)O (some centres not stated)

>  <Measurement Type>
normalised cell number

>  <Observed>
1.05

$$$$
>  <Molecule>
C=C[C@@H](C1=CC(=O)C(OC)=C(OC)C1=O)c1ccccc1

>  <Measurement Type>
normalised cell number

>  <Observed>
1.04

$$$$
>  <Molecule>
CC1=CC2C(C(C)C)CCC(C)(O)C2CC1 (configuration not stated)

>  <Measurement Type>
normalised cell number

>  <Observed>
1.1

$$$$
>  <Molecule>
CC(C)[C@@H]1CC[C@@H](C)C[C@H]1OC(=O)c1ccccc1

>  <Measurement Type>
normalised cell number

>  <Observed>
0.9

$$$$
>  <Molecule>
CC1=C(C(=O)O)N2C(=O)[C@@H](NC(=O)C(N)c3ccccc3)[C@H]2SC1 (some centres not stated)

>  <Measurement Type>
normalised cell number

>  <Observed>
1.06

$$$$

Consider the additional molecule presented here.
What normalised cell number value was documented for this molecule, CO/N=C(\C(=O)NC1C(=O)N2C(C(=O)OCOC(=O)C(C)(C)C)=C(/C=C\c3scnc3C)CSC12)c1csc(N)n1 (configuration not stated) ?
1.21

All figures here come from PubChem BioAssay.
